System: human Factor XI mRNA
protocolDescription: Antisense inhibition in HepG2 cells by microwalk gapmers, 75 nM, lipofectin (Example 3)
Format: cell-based
particulars: HepG2 cells, 75 nM, oligonucleotides targeted to nucleobases 738 to 762 of SEQ ID NO: 1
In the oligonucleotide strings, read from the 5' end, every base follows the letter of its sugar. An asterisk marks phosphorothioate; unmarked linkages are phosphodiester. Other units and linkages are bracketed, terminal groups are in braces. A string of capitals states the bases alone. e = 2'-O-(2-methoxyethyl) (MOE); [5mC] = 5-methylcytosine; d = 2'-deoxy (DNA)
metricName: % inhibition of human Factor XI mRNA levels (%)
Your answer is read as %, so omit the unit and give the number.

Challenge: I have this substance here, 412206 (antisense e[5mC]*e[5mC]*eG*eT*eG*d[5mC]*dA*dT*d[5mC]*dT*dT*dT*d[5mC]*dT*dT*eG*eG*e[5mC]*eA*eT) [compound 412206] , and I need its recorded % inhibition of human Factor XI mRNA levels.
Response given: 93

Challenge: I have this substance here, 416977 (antisense eA*eT*d[5mC]*d[5mC]*dG*dT*dG*d[5mC]*dA*dT*d[5mC]*dT*dT*dT*d[5mC]*eT*eT*eG*eG*e[5mC]) [compound 416977] , and I need its recorded % inhibition of human Factor XI mRNA levels.
Response given: 82

Challenge: I have this substance here, 416898 (antisense e[5mC]*e[5mC]*eG*dT*dG*d[5mC]*dA*dT*d[5mC]*dT*dT*dT*d[5mC]*dT*dT*dG*dG*e[5mC]*eA*eT) [compound 416898] , and I need its recorded % inhibition of human Factor XI mRNA levels.
Response given: 88

Challenge: I have this substance here, 416902 (antisense eT*e[5mC]*eA*dT*d[5mC]*d[5mC]*dG*dT*dG*d[5mC]*dA*dT*d[5mC]*dT*dT*dT*d[5mC]*eT*eT*eG) [compound 416902] , and I need its recorded % inhibition of human Factor XI mRNA levels.
Response given: 46
